meta.source: the kinase profiling compilation of Christmann-Franck et al. (2016)

# Subject of test: CSNK1D (human)
# Experiment summary: radiometric filter-binding kinase assay
# Applied conditions: compound 0.1 µM
Let's look at some compounds and their measured residual activity.
Numbers only; they are read as %.

The reported residual activity of the compound c1ccc2c(-c3cnn4cc(-c5ccc(N6CCNCC6)cc5)cnc34)ccnc2c1 was 91

Data point: C/C(=C1/C(=O)Nc2ccc(NC(N)=O)cc21)c1ccc[nH]1 ; residual activity = 89

# residual activity of CNC(=O)C1[C@H]2O[C@@](C)([C@@H]1N)n1c3ccccc3c3c4c(c5c6ccccc6n2c5c31)C(=O)NC4 (stereo not given in full) = 107

Looking up O=C(Nc1ccccc1-c1cn2c(CN3CCNCC3)csc2n1)c1cnc2ccccc2n1 , I found its residual activity recorded as 99

Measured residual activity of CCCCCc1ccc(/C=C/[C@H](O)[C@@H](CO)NC)cc1 : 88

* * *

# Subject of test: CHEK1 (human)
# Experiment summary: radiometric filter-binding kinase assay
# Applied conditions: compound 1.0 µM
# residual activity >= 90% gives condition met, anything below gives condition not met

Past entries and their recorded results:
Enquiry: Entry C=C1C(=O)OC2C1CC/C(C)=C/CCC1(C)OC21 (stereo unspecified) : is its residual activity no less than 90%?
Return: condition met

Enquiry: Evaluate COc1ccc(-n2ncc3cnc(Nc4cc(OC)c(OC)c(OCCCN5CCN(C)CC5)c4)nc32)cc1 : residual activity at minimum 90%?
Return: condition not met

Enquiry: Dear colleague, could you confirm whether CCc1cncnc1N1CCN(Cc2nc3cc(C(F)(F)F)ccc3[nH]2)CC1 has residual activity at or above 90%?
Return: condition not met

Enquiry: Would you say O=C1Nc2nc(-c3c(O)cccc3OCC3CC3)cc(C3CCCNC3)c2CO1 (stereo unspecified) shows residual activity at minimum 90%?
Return: condition met

Enquiry: API: above_or_equal(metric=residual activity, cutoff=90%) for item N#Cc1c(C2CCNCC2)cc(-c2c(O)cccc2OCC2CC2)nc1N
Return: condition met

Enquiry: residual activity >= 90% for Oc1ccc(/C=C/c2cc(O)cc(O)c2)cc1 ?
Return: condition met

Enquiry: hey, is residual activity for this one >= 90%? NC(=O)Nc1ccc2c(c1)/C(=C/c1cc(-c3cccnc3)c[nH]1)C(=O)N2
Return: condition not met

Enquiry: Can O=C(O)c1cc(N=Nc2ccc(S(=O)(=O)Nc3ccccn3)cc2)ccc1O be said to have residual activity at or above 90%?
Return: condition met

// switching to the query compound
Enquiry: Check the entry Nc1cccc2c1CN(C1CCC(=O)NC1=O)C2=O (stereo unspecified) : does residual activity equal or exceed 90%?
Return: condition met

* * *

# Subject of test: MAPK10 (human)
# Experiment summary: radiometric filter-binding kinase assay
# Applied conditions: compound 1.0 µM
Measured endpoint: residual activity (%)
The figure you give is taken to be in %; do not add the unit.

Known residual activity results, listed for orientation:
Reported residual activity for C=CC(=O)N1CCC[C@@H](n2nc(-c3ccc(Oc4ccccc4)cc3)c3c(N)ncnc32)C1 was 96

So, COc1ccc(-n2ncc3cnc(Nc4cc(OC)c(OC)c(OCCCN5CCN(C)CC5)c4)nc32)cc1 ? Its residual activity was 39

The recorded residual activity for entry COc1cc2ncn(-c3cc(OCc4ccccc4S(C)(=O)=O)c(C#N)s3)c2cc1OC equals 99

residual activity measured on O=C(Nc1ccccc1-c1cn2c(CN3CCNCC3)csc2n1)c1cnc2ccccc2n1 = 105

The measured residual activity associated with NS(=O)(=O)OC[C@@H]1C[C@@H](n2ccc3c(N[C@H]4CCc5ccccc54)ncnc32)C[C@@H]1O reads 81

---
The compound identified as CCNc1nc(Nc2cc(F)c(C(=O)N3CCOCC3)cc2OC)ncc1C(F)(F)F registered its residual activity at 84

Entry COc1ccc2c(c1)c1c3c(c4c5ccccc5n(C)c4c1n2CC(O)CN(C)C)C(=O)NC3=O (stereo not given) — recorded residual activity = 97

Reported residual activity for CN(C)C/C=C/C(=O)Nc1cccc(C(=O)Nc2ccc(Nc3nccc(-c4cccnc4)n3)cc2)c1 was 16

Value of measured residual activity for the entry COc1cc(O)c2c(c1)[C@H]1OC1C[C@H](O)[C@H](O)C(=O)/C=C\C[C@H](C)OC2=O (stereo not given in full) : 107

* * *

# Subject of test: UniProt P28482
# Sequence (P28482 whole entry, looked up): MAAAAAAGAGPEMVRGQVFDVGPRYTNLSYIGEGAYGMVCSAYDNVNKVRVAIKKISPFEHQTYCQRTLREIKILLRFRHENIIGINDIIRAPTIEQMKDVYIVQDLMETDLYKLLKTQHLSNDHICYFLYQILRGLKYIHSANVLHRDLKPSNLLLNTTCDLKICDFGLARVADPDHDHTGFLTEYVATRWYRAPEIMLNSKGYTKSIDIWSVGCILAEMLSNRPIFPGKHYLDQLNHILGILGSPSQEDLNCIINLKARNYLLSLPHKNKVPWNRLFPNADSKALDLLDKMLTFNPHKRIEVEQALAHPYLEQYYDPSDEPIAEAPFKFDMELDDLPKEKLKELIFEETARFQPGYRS
# Experiment summary: radiometric filter-binding kinase assay
# Applied conditions: compound 1.0 µM
Recorded measurements of residual activity, one per entry
Write the value in % as a bare number.

Solved cases below.
Record COc1cc(C(=O)N2CCOCC2)c(F)cc1Nc1ncc(C(F)(F)F)c(NC2CC2)n1 / UniProt P28482, residual activity recorded as 95

Value (residual activity, UniProt P28482) for record O=C(NCCCNc1nc(Nc2cccc(CN3CCOCC3)c2)ncc1C1CC1)C1CCC1 = 110

Readout residual activity for COc1cc(O)c2c(c1)[C@H]1OC1C[C@H](O)[C@H](O)C(=O)/C=C\C[C@H](C)OC2=O (stereo partly specified) , test system UniProt P28482, was 36

Bench note, UniProt P28482: NC(=O)c1cc2c(-c3cccc(-c4ccccc4)c3)cnc(N)c2s1 , residual activity reads 35

Item FC(F)(F)c1ccc(-c2ccc(Oc3cncc4sc(-c5nn[nH]n5)cc34)cc2)cc1 ; assay system UniProt P28482; residual activity reported as 114

***
Tested system UniProt P28482; residual activity recorded for CN1C(=O)[C@@H](Cc2c[nH]c3ccccc23)NC1=S was 94

For O=C(N[C@@H](COc1ccc2[nH]c(=O)[nH]c2c1)c1ccccc1)c1cccn(Cc2ccc(F)c(F)c2)c1=O on UniProt P28482, measured residual activity was 100

Summary line: Cc1cccc(-c2nn(C(=S)Nc3ccccc3)cc2-c2ccnc3ccccc23)n1 , UniProt P28482, reported residual activity = 94

Form: item Cc1nc(-c2ccc(OCC(C)C)c(C#N)c2)sc1C(=O)O ; test system UniProt P28482; residual activity: 105

So the reported residual activity for O=C(O)c1cc(N=Nc2ccc(S(=O)(=O)Nc3ccccn3)cc2)ccc1O , on UniProt P28482, turned out to be 104

Value (residual activity, UniProt P28482) for record O=C1NC(=S)N[C@@H]1Cc1c[nH]c2ccccc12 = 80

The compound COc1ccc(N(C(=O)Nc2c(C)cccc2C)c2cc(Nc3ccc(N4CCN(C)CC4)cc3)ncn2)c(OC)c1 on UniProt P28482: residual activity was 109

// assay UniProt P28482, entry CCCCCc1ccc(/C=C/[C@H](O)[C@@H](CO)NC)cc1 , residual activity value = 90

* * *

# Subject of test: EEF2K (human)
# Experiment summary: radiometric filter-binding kinase assay
# Applied conditions: compound 1.0 µM
Measured endpoint: residual activity (%)
Write the number in % without appending the unit.

Consider the worked cases shown below.
The recorded residual activity for entry Cc1ccc(=O)n(-c2ccccc2)c1 equals 83

Sample C[C@H]1CCCC(=O)CCC/C=C/c2cc(O)cc(O)c2C(=O)O1 ; residual activity observed: 101

Sample NS(=O)(=O)OC[C@@H]1C[C@@H](n2ccc3c(N[C@H]4CCc5ccccc54)ncnc32)C[C@@H]1O ; residual activity observed: 100

Value of residual activity reported for the compound NC(=O)c1cc2c(-c3cccc(-c4ccccc4)c3)cnc(N)c2s1 is 114

Noted for Cn1c(=O)c2c(ncn2C)n(C)c1=O : its residual activity reads 92

New cases:
Measured residual activity of CCNc1nc(Nc2cc(F)c(C(=O)N3CCOCC3)cc2OC)ncc1C(F)(F)F : 116

* * *

# Subject of test: MAPK1 (human)
# Experiment summary: radiometric filter-binding kinase assay
# Applied conditions: compound 1.0 µM
Each record here notes measured residual activity.
# output: bare number, implied unit %

// worked examples, residual activity included
Measured on MAPK1 (human), CCn1c(-c2nonc2N)nc2cncc(CNC3CCNCC3)c21 has a documented residual activity of 117

Tested on MAPK1 (human): O=C(Nc1ccccc1-c1cn2c(CN3CCNCC3)csc2n1)c1cnc2ccccc2n1 . Observed residual activity: 103

Value sought: residual activity, system MAPK1 (human), item NC1(c2ccc(-c3nc4ccn5c(=O)[nH]nc5c4cc3-c3ccccc3)cc2)CCC1 . Result: 96

More entries:
Measured residual activity (MAPK1 (human)), entry N#Cc1c(C2CCNCC2)cc(-c2c(O)cccc2OCC2CC2)nc1N : 101

Note to self: residual activity of CNc1nc(-c2ccc3c(N)n[nH]c3c2)cc(N2C[C@@H](C(=O)NC3CCCCC3)CC[C@H]2C)n1 with MAPK1 (human) was 107

* * *

# Subject of test: MARK2 (human) (UniProt Q7KZI7)
# Sequence (Q7KZI7 whole entry, looked up): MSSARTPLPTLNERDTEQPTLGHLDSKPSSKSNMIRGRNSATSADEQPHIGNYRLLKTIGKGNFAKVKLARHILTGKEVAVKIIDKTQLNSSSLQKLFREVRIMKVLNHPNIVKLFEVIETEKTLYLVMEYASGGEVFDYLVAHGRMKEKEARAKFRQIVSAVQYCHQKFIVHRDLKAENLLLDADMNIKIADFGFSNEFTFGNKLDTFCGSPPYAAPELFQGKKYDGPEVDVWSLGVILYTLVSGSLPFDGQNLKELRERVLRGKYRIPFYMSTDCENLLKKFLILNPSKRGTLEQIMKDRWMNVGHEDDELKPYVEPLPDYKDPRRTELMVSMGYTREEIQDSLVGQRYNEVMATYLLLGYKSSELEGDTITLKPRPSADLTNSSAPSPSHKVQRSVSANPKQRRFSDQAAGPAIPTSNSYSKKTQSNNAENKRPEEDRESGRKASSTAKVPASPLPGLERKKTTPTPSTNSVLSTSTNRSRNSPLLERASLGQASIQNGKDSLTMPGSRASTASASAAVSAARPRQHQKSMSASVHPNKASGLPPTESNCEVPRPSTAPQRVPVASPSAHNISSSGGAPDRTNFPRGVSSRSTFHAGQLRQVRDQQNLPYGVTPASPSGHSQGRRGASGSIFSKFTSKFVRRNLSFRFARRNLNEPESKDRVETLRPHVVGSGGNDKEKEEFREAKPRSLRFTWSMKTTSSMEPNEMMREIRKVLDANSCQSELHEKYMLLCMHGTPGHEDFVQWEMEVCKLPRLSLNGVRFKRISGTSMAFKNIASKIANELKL
# Experiment summary: radiometric filter-binding kinase assay
# Applied conditions: compound 1.0 µM
Measured endpoint: residual activity (%)
Express it in %; write the number only.

Considering Cc1cccc(-c2nn(C(=S)Nc3ccccc3)cc2-c2ccnc3ccccc23)n1 , its residual activity with MARK2 (human) (UniProt Q7KZI7) was recorded as 110

Reading of residual activity for O=C(NOCC(O)CO)c1ccc(F)c(F)c1Nc1ccc(I)cc1Cl (stereo not given) with MARK2 (human) (UniProt Q7KZI7): 101

Bench note, MARK2 (human) (UniProt Q7KZI7): CNc1nc(-c2ccc3c(N)n[nH]c3c2)cc(N2C[C@@H](C(=O)NC3CCCCC3)CC[C@H]2C)n1 , residual activity reads 96

Measured residual activity (MARK2 (human) (UniProt Q7KZI7)), entry Cc1nc(-c2ccc(OCC(C)C)c(C#N)c2)sc1C(=O)O : 60

New cases:
The measured residual activity that CN1C(=O)[C@@H](Cc2c[nH]c3ccccc23)NC1=S showed for MARK2 (human) (UniProt Q7KZI7) is 110
